- assay-target: Sortase A (Staphylococcus aureus, UniProt Q9S446)
- Sequence (Q9S446 1-206): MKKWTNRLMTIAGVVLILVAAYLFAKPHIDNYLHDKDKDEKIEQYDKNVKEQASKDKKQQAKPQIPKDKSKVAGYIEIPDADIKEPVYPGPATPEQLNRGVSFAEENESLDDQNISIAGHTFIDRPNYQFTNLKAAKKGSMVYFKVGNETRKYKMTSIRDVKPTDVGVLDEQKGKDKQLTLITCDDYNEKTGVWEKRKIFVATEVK
- method-notes: Inhibition of Staphylococcus aureus SrtA deltaN24 mutant transpeptidation activity using abz-LPATG-dnp as substrate preincubated for 10 mins followed by substrate addition measured every 2 mins for 20 mins by FRET assay
IC50 overview
Express your answer in µM, writing the number without its unit.

For orientation, consider the following solved cases.
molecule	measured-parameter	units-text	endpoint-result
CC(C)=CC[C@@H](O)C1=CC(=O)c2c(O)ccc(O)c2C1=O [SHIKONIN]	IC50	µM	0.3
CC(C)=CC[C@H](O)C1=CC(=O)c2c(O)ccc(O)c2C1=O [ALKANNIN]	IC50	µM	0.36
O=C1C[C@H]2O[C@H](CCc3ccccc3)C3=C(C(=O)C=CC3=O)[C@H]2O1	IC50	µM	6.2

# context switch: different molecule, same IC50
Qu. Look up IC50 for this molecule: `O=C1C[C@H]2O[C@@H](CCc3ccccc3)C3=C(C(=O)C=CC3=O)[C@H]2O1`
Ans. 19.4
